Parameter: Clearance of human microsome. Scope: all listed entries.
run description: Metabolic (liver microsomal) stability assay
applied conditions: human liver microsomes, 1 μM test compound

# molecule, Clearance of human microsome [mL/min/kg]
records = [
    ("CN1CCCc2c3c(cccc3nn2C)-c2ccnc(n2)O[C@H]2C[C@@H](C1=O)N(c1ncnc3c1cnn3-c1ccc(F)cc1F)C2 [Example 11]", 6.1),
    ("Cn1nc2cccc3c2c1CCCN(CC1CC1)C(=O)[C@@H]1C[C@@H](CN1c1ncnc2c1cnn2-c1ccc(F)cc1F)Oc1nccc-3n1 [Example 19]", 10.0),
    ("Cn1cnc(CN2CCCc3c4c(cccc4nn3C)-c3cccc(c3)O[C@H]3C[C@@H](C2=O)N(c2ncnc4c2cnn4-c2ccc(F)cc2F)C3)n1 [Example 16]", 15.9),
    ("Cn1nc2cccc3c2c1CCCN(CCCO)C(=O)[C@@H]1C[C@@H](CN1c1ncnc2c1cnn2-c1ccc(F)cc1F)Nc1cccc-3n1 [Example 42]", 13.3),
    ("CN1CCCc2c3c(cccc3nn2C)-c2cncc(n2)N[C@H]2C[C@@H](C1=O)N(c1ncnc3c1cnn3-c1ccc(F)cc1F)C2 [Example 7]", 13.3),
    ("COc1cc(F)ccc1-n1ncc2c(N3C[C@@H]4C[C@H]3C(=O)N(CCCN3CCOCC3)CCCc3c5c(cccc5nn3C)-c3cccc(n3)N4)ncnc21 [Example 43]", 12.0),
    ("COc1cc(F)ccc1-n1ncc2c(N3C[C@@H]4C[C@H]3C(=O)N(CCCN3CCOCC3)CCCc3c5c(cccc5nn3C)-c3cc(C)cc(n3)N4)ncnc21 [Example 46]", 14.9),
    ("CN1CCCc2c3c(cccc3nn2C)-c2ccnc(n2)N[C@H]2C[C@@H](C1=O)N(c1ncnc3c1cnn3-c1ccc(F)cc1F)C2 [Example 4]", 15.0),
    ("COc1cc(F)ccc1-n1ncc2c(N3C[C@@H]4C[C@H]3C(=O)N(CCCN3CCOCC3)CCCc3c5c(ccc(F)c5nn3C)-c3cccc(n3)N4)ncnc21 [Example 45]", 15.9),
    ("CN1CC2CC1CN2CCCN1CCCc2c3c(cccc3nn2C)-c2cccc(c2)O[C@H]2C[C@@H](C1=O)N(c1ncnc3c1cnn3-c1ccc(F)cc1F)C2 [Example 34]", 6.1),
    ("COc1cc(F)ccc1-n1ncc2c(N3C[C@@H]4C[C@H]3C(=O)N(C)CCCc3c5c(cc(F)cc5nn3C)-c3ccnc(n3)O4)ncnc21 [Example 12]", 13.2),
    ("Cn1nc2cccc3c2c1CCCN(CCCn1cnnn1)C(=O)[C@@H]1C[C@@H](CN1c1ncnc2c1cnn2-c1ccc(F)cc1F)Oc1cccc-3c1 [Example 36]", 11.9),
    ("CN(C)CCN1CCCc2c3c(cccc3nn2C)-c2cccc(c2)O[C@H]2C[C@@H](C1=O)N(c1ncnc3c1cnn3-c1ccc(F)cc1F)C2 [Example 24]", 14.9),
    ("Cn1nc2cccc3c2c1CCCN(CCO)C(=O)[C@@H]1C[C@@H](CN1c1ncnc2c1cnn2-c1ccc(F)cc1F)Oc1cccc-3c1 [Example 22]", 15.5),
    ("Cn1nc2cccc3c2c1CCCN(CCCN1CC2(COC2)C1)C(=O)[C@@H]1C[C@@H](CN1c1ncnc2c1cnn2-c1ccc(F)cc1F)Oc1cccc-3c1 [Example 31]", 12.4),
    ("CN1CCCc2c3c(cccc3nn2C)-c2cccc(n2)O[C@H]2C[C@@H](C1=O)N(c1ncnc3c1cnn3-c1ccc(F)cc1F)C2 [Example 9]", 11.6),
    ("Cn1nc2cccc3c2c1CCCNC(=O)[C@@H]1C[C@@H](CN1c1ncnc2c1cnn2-c1ccc(F)cc1F)Oc1ccnc-3c1 [Example 10]", 8.3),
    ("Cn1nc2c(F)ccc3c2c1CCCN(CCCN1CCOCC1)C(=O)[C@@H]1C[C@@H](CN1c1ncnc2c1cnn2-c1ccc(F)cc1F)Nc1cccc-3n1 [Example 44]", 15.8),
    ("Cn1nc2cccc3c2c1CCCN(CC1CC1)C(=O)[C@@H]1C[C@@H](CN1c1ncnc2c1cnn2-c1ccc(F)cc1F)Oc1cc-3ncn1 [Example 18]", 12.4),
]

###

study system: human stimulator of interferon genes (STING) (139-379) (Homo sapiens (Human))
Sequence (Q86WV6 139-379): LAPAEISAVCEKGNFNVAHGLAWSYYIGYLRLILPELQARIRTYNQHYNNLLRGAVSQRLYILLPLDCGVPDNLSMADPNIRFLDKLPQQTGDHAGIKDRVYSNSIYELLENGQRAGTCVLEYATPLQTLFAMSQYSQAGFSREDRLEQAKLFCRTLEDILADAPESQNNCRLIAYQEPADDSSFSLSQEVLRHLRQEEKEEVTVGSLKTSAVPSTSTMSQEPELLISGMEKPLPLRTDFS
pIC50: −log10 of the molar value.

# test smiles, pIC50
rows = [
    ("COc1cc(F)ccc1-n1ncc2c(N3C[C@@H]4C[C@H]3C(=O)N(CCCN3CCOCC3)CCCc3c5c(ccc(F)c5nn3C)-c3cccc(n3)N4)ncnc21", 8.41),
    ("Cn1nc2cccc3c2c1CCCN(Cc1cscn1)C(=O)[C@@H]1C[C@@H](CN1c1ncnc2c1cnn2-c1ccc(F)cc1F)Oc1cccc-3c1", 8.66),
    ("Cn1nc2cccc3c2c1CCCN(CCCO)C(=O)[C@@H]1C[C@@H](CN1c1ncnc2c1cnn2-c1ccc(F)cc1F)Oc1cccc-3c1", 8.66),
]

###

study system: human stimulator of interferon genes (STING) (139-379) (Homo sapiens (Human))

# test smiles, study system, IC50 (nM)
measured = [
    ("COc1cc(F)ccc1-n1ncc2c(N3C[C@@H]4C[C@H]3C(=O)N(CCCN3CCOCC3)CCCc3c5c(cccc5nn3C)-c3ccnc(n3)N4)ncnc21", "human stimulator of interferon genes (STING) (139-379) (Homo sapiens (Human))", 7.2),
    ("Cn1nc2cccc3c2c1CCCNC(=O)[C@@H]1C[C@@H](CN1c1ncnc2c1cnn2-c1ccc(F)cc1F)Oc1cccc-3c1", "human stimulator of interferon genes (STING) (139-379) (Homo sapiens (Human))", 0.8),
    ("Cn1nc2cccc3c2c1CCCN(CC1CC1)C(=O)[C@@H]1C[C@@H](CN1c1ncnc2c1cnn2-c1ccc(F)cc1F)Oc1cccc-3c1", "human stimulator of interferon genes (STING) (139-379) (Homo sapiens (Human))", 1.6),
    ("CN1CCCc2c3c(cccc3nn2C)-c2ccnc(n2)N[C@H]2C[C@@H](C1=O)N(c1ncnc3c1cnn3-c1ccc(F)cc1F)C2", "human stimulator of interferon genes (STING) (139-379) (Homo sapiens (Human))", 0.5),
    ("Cn1nc2cccc3c2c1CCCN(CCCn1cnnn1)C(=O)[C@@H]1C[C@@H](CN1c1ncnc2c1cnn2-c1ccc(F)cc1F)Oc1cccc-3c1", "human stimulator of interferon genes (STING) (139-379) (Homo sapiens (Human))", 1.3),
    ("CN1CCCc2c3c(cccc3nn2C)-c2cncc(n2)N[C@H]2C[C@@H](C1=O)N(c1ncnc3c1cnn3-c1ccc(F)cc1F)C2", "human stimulator of interferon genes (STING) (139-379) (Homo sapiens (Human))", 0.4),
    ("CN1CCCc2c3c(cccc3nn2C)-c2cccc(c2)O[C@H]2C[C@@H](C1=O)N(c1ncnc3c1cnn3-c1ccc(F)cc1F)C2", "human stimulator of interferon genes (STING) (139-379) (Homo sapiens (Human))", 2.7),
    ("Cn1nc2cccc3c2c1CCCN(CCCN1CCN(S(C)(=O)=O)CC1)C(=O)[C@@H]1C[C@@H](CN1c1ncnc2c1cnn2-c1ccc(F)cc1F)Oc1cccc-3c1", "human stimulator of interferon genes (STING) (139-379) (Homo sapiens (Human))", 0.2),
    ("COCCOCCCN1CCCc2c3c(cccc3nn2C)-c2cccc(c2)O[C@H]2C[C@@H](C1=O)N(c1ncnc3c1cnn3-c1ccc(F)cc1F)C2", "human stimulator of interferon genes (STING) (139-379) (Homo sapiens (Human))", 5.5),
]

###

Parameter: IC50. Scope: all listed entries.
Tested on: STING (IFN-β in hPBMC)
run description: hPBMC cytokine functional assay (IFN-β decrease after Baculovirus stimulation)
Assay type: cell-based
applied conditions: Homo sapiens, Baculovirus MOI 40, 24 hours, read-out: hPBMC_IC50

# molecule, IC50 [nM]
data = [
    ("Cn1nc2cccc3c2c1CCCN(CCC(C)(C)O)C(=O)[C@@H]1C[C@@H](CN1c1ncnc2c1cnn2-c1ccc(F)cc1F)Oc1cccc-3c1 [Example 40]", 708),
    ("C=CCN1CCCc2c3c(cccc3nn2C)-c2cccc(c2)O[C@H]2C[C@@H](C1=O)N(c1ncnc3c1cnn3-c1ccc(F)cc1F)C2 [Example 20]", 346),
    ("Cn1nc2cccc3c2c1CCCN(CCN1CCOCC1)C(=O)[C@@H]1C[C@@H](CN1c1ncnc2c1cnn2-c1ccc(F)cc1F)Oc1cccc-3c1 [Example 23]", 279),
]
